Provenance of the data: patent USRE47150

- experimental system: T1, human tissue factor pathway inhibitor (TFPI) (human, UniProt P10646 29-304, limits assumed)
- T1 construct: bought; also called hTFPI; human TFPI
- T1 sequence (looked up): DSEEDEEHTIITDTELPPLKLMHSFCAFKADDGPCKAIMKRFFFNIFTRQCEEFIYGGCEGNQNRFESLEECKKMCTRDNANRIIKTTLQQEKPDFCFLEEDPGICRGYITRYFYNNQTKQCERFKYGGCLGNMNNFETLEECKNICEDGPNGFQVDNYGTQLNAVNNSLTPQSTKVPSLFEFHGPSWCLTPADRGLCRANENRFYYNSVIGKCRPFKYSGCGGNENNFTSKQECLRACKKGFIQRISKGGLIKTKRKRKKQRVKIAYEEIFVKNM
- assay name: competitive ELISA
Here, each record is paired with measured variant/HC_K99L data.

binder	variant/HC_K99L (ratio)
2A8 HC S35D+K99L/LC D91L+V96W (Fab, V domains shown) VH: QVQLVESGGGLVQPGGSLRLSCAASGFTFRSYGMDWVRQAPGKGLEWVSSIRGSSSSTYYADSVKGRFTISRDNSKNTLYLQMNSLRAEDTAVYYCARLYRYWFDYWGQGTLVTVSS VL: DIELTQPPSVSVAPGQTARISCSGDNLRNYYAHWYQQKPGQAPVVVIYYDNNRPSGIPERFSGSNSGNTATLTISGTQAEDEADYYCQSWLDGVPWFGGGTKLTVLG	7.1
2A8 HC G33P+S35D+S54F+K99L/LC Y48F+N52G (Fab, V domains shown) VH: QVQLVESGGGLVQPGGSLRLSCAASGFTFRSYPMDWVRQAPGKGLEWVSSIRGFSSSTYYADSVKGRFTISRDNSKNTLYLQMNSLRAEDTAVYYCARLYRYWFDYWGQGTLVTVSS VL: DIELTQPPSVSVAPGQTARISCSGDNLRNYYAHWYQQKPGQAPVVVIFYDNGRPSGIPERFSGSNSGNTATLTISGTQAEDEADYYCQSWDDGVPVFGGGTKLTVLG	6.2
2A8 HC S31V+S54F+K99L/LC N51V (Fab, V domains shown) VH: QVQLVESGGGLVQPGGSLRLSCAASGFTFRVYGMSWVRQAPGKGLEWVSSIRGFSSSTYYADSVKGRFTISRDNSKNTLYLQMNSLRAEDTAVYYCARLYRYWFDYWGQGTLVTVSS VL: DIELTQPPSVSVAPGQTARISCSGDNLRNYYAHWYQQKPGQAPVVVIYYDVNRPSGIPERFSGSNSGNTATLTISGTQAEDEADYYCQSWDDGVPVFGGGTKLTVLG	16.3
